Where do these numbers come from? They come from the supplement of paper PMC12764529.

- protocolDescription: folding stability dG unfold from chymotrypsin proteolysis; higher = more stable
# folding stability dG unfold >= 3 kcal/mol gives 1 (yes), anything below gives 0 (no)

Identify whether the reported folding stability dG unfold of the following sequence is 3 kcal/mol or greater: SAGGSAGGSMIKVKITYPNGEEKTIEIEAETEEEAEEAAKKLAEELGKDVKVEVEKVSPEELKSAGGSAGGS [r12_385_TrROS_Hall] 0 (no)

Same lookup for SAGGSAGGSPKWKTIEITVLVPGMPAEEIAKNIANNFGIEITDIDVQLFPNGWVVVSATIRVKSAGGSAGGS [r12_359_TrROS] , please. 1 (yes)

Same lookup for SAGGSAGGDRLEVVAPVDDPVEQAREFAERLREEFRRRYPDREIDRVEVFYDPGARTLHVRLYPSAGGSAGG [r6_662_TrMRF] , please. 0 (no)

Same lookup for SITIKIPLKPGYPYALRIHFYNPNGKPREMDMNVTRKPDGEVEIPIKIPDKDIPPGQDIRIQSIEIYPMKSA [r9_359_TrROS] , please. 0 (no)

Same lookup for MYTIEVEVSTEPNPNTTTVTVRITSDDGTPVPEEVVKEAAEKIKKSGYPIDELEVKPLPDGSVEVTLKYSSS [r1_408_JUSTAS] , please. 1 (yes)

Same lookup for SAGGSAGGSAGPVVISIPETNTLVVLAPLPDDRVLADVFQFDPTTPEPTVFTVPAENISFSAGGSAGGSAGG [r11_285_TrMRF] , please. 0 (no)

Same lookup for SAGPWIMIPLPPELREIAKKAGMSPDDVETVEIPLKFGDREVKIEVEVMPDDGWIMVRFKSNGKEFMIPSAG [r5_545_TrROS] , please. 1 (yes)

Same lookup for SAGGSAMKLVLTFPEGLPEIPLEELAKAIEDALPEDFEVKEIKVEPLPDGGLRLTFIVNDEEVEILSAGGSA [r15_451_TrMRF] , please. 0 (no)

Same lookup for SAGGSAGGSAGGSKPMYLFTVETENGKKLVIEAKSLEEALKALEKAGYKIKKVEVVKLPSAGGSAGGSAGGS [r4_213_TrROS_Hall] , please. 1 (yes)

Same lookup for SAGGSAGGMLTFTFSLSEIPPYPSGSLSLEEVKKRMEPILRKLLGRKDVKIKVESLPDGTIRVTVESAGGSA [r15_562_JUSTAS] , please. 1 (yes)

Same lookup for SAGGSGMTETIKLSDPKNGLSVTVTVTFDPATGSKSVTITVESSEEAKEKVKALLEEKGLPVTVTSSAGGSA [r2_30_JUSTAS] , please. 0 (no)

Same lookup for SPAGELVSSTFPVTVTVTVWRRLPDGTWTPVGTETFTVTVTVAGIPEEVAEALRKAAETPPPPPNLAGLLSA [r9_1192_TrMRF] , please. 0 (no)

Same lookup for SAGGSAGGSLEVKVLGIVGDKPVEVTLPAGLGELTLEEIRAAFPPGEWRLVLRDENGNETPLTSAGGSAGGS [r12_540_TrMRF] , please. 0 (no)
